System: Aspergillus niger
EXPERIMENT_SUMMARY: Antifungal activity against Aspergillus niger by agar diffusion technique
Format: functional
Threshold rule: inhibition zone (IZ) greater than or equal to 70 mm is Satisfied; below that, Not satisfied.

Assess whether reported inhibition zone (IZ) for Cc1nc(N/N=C/C2=C(Cl)c3ccccc3CC2)sc1/N=N/c1ccccc1 sits at 70 mm or higher.
Satisfied

Assess whether reported inhibition zone (IZ) for ClC1=C(/C=N/Nc2nc(-c3ccccc3)c(/N=N/c3ccccc3)s2)CCc2ccccc21 sits at 70 mm or higher.
Satisfied

Assess whether reported inhibition zone (IZ) for Nc1sc(=S)n(-c2ccccc2)c1C(=O)N/N=C/C1=C(Cl)c2ccccc2CC1 sits at 70 mm or higher.
Not satisfied

Assess whether reported inhibition zone (IZ) for O=C1CSC(N/N=C/C2=C(Cl)c3ccccc3CC2)=N1 sits at 70 mm or higher.
Not satisfied

Assess whether reported inhibition zone (IZ) for O=C1/C(=C\c2ccc(Cl)cc2)S/C(=N\N=C\C2=C(Cl)c3ccccc3CC2)N1c1ccccc1 sits at 70 mm or higher.
Not satisfied

Assess whether reported inhibition zone (IZ) for O=C1CS/C(=N\N=C\C2=C(Cl)c3ccccc3CC2)N1c1ccccc1 sits at 70 mm or higher.
Not satisfied

Assess whether reported inhibition zone (IZ) for O=C1N=C(N/N=C/C2=C(Cl)c3ccccc3CC2)S/C1=C/c1ccc(Cl)cc1 sits at 70 mm or higher.
Satisfied

---

System: Bacillus subtilis
EXPERIMENT_SUMMARY: Antimicrobial activity against Bacillus subtilis by agar diffusion technique
Assay type: functional
VALUE_KIND: inhibition zone (IZ) (mm)
I only need the number, in mm, no unit after it.

Query (compound): Cc1nc(N/N=C/C2=C(Cl)c3ccccc3CC2)sc1/N=N/c1ccccc1 ; field requested: inhibition zone (IZ)
81

Query (compound): COc1ccc(/N=N/c2sc(N/N=C/C3=C(Cl)c4ccccc4CC3)nc2-c2ccccc2)cc1 ; field requested: inhibition zone (IZ)
90

Query (compound): Nc1sc(=S)n(-c2ccccc2)c1C(=O)N/N=C/C1=C(Cl)c2ccccc2CC1 ; field requested: inhibition zone (IZ)
89

---

Tested on: Bacillus subtilis
EXPERIMENT_SUMMARY: Antimicrobial activity against Bacillus subtilis by agar diffusion technique
Type: functional
Threshold rule: inhibition zone (IZ) greater than or equal to 70 mm is 1 (yes); below that, 0 (no).

Assess whether reported inhibition zone (IZ) for O=C1/C(=C\c2ccc(Cl)cc2)S/C(=N\N=C\C2=C(Cl)c3ccccc3CC2)N1c1ccccc1 sits at 70 mm or higher.
0 (no)

Assess whether reported inhibition zone (IZ) for ClC1=C(/C=N/Nc2nc(-c3ccccc3)cs2)CCc2ccccc21 sits at 70 mm or higher.
0 (no)

Assess whether reported inhibition zone (IZ) for CCOC(=O)C1SC(N/N=C/C2=C(Cl)c3ccccc3CC2)=NC1=O (stereo not given) sits at 70 mm or higher.
0 (no)

Assess whether reported inhibition zone (IZ) for COc1ccc(/N=N/c2sc(N/N=C/C3=C(Cl)c4ccccc4CC3)nc2C)cc1 sits at 70 mm or higher.
1 (yes)

Assess whether reported inhibition zone (IZ) for O=C1CSC(N/N=C/C2=C(Cl)c3ccccc3CC2)=N1 sits at 70 mm or higher.
0 (no)

Assess whether reported inhibition zone (IZ) for O=c1c2c(ncn1/N=C/C1=C(Cl)c3ccccc3CC1)sc(=S)n2-c1ccccc1 sits at 70 mm or higher.
1 (yes)

Assess whether reported inhibition zone (IZ) for ClC1=C(/C=N/Nc2nc(-c3ccccc3)c(/N=N/c3ccccc3)s2)CCc2ccccc21 sits at 70 mm or higher.
1 (yes)

Assess whether reported inhibition zone (IZ) for O=C1CS/C(=N\N=C\C2=C(Cl)c3ccccc3CC2)N1c1ccccc1 sits at 70 mm or higher.
0 (no)

Assess whether reported inhibition zone (IZ) for O=C1N=C(N/N=C/C2=C(Cl)c3ccccc3CC2)S/C1=C/c1ccc(Cl)cc1 sits at 70 mm or higher.
0 (no)

Assess whether reported inhibition zone (IZ) for Cc1csc(N/N=C/C2=C(Cl)c3ccccc3CC2)n1 sits at 70 mm or higher.
0 (no)

---

Please provide measured inhibition zone (IZ) for the entries that follow.
Tested on: Aspergillus niger
EXPERIMENT_SUMMARY: Antifungal activity against Aspergillus niger by agar diffusion technique
Assay type: functional
I only need the number, in mm, no unit after it.

Query (molecule): COc1ccc(/N=N/c2sc(N/N=C/C3=C(Cl)c4ccccc4CC3)nc2C)cc1 ; field requested: inhibition zone (IZ)
80

Query (molecule): ClC1=C(/C=N/Nc2nc(-c3ccccc3)cs2)CCc2ccccc21 ; field requested: inhibition zone (IZ)
77

Query (molecule): O=c1c2c(ncn1/N=C/C1=C(Cl)c3ccccc3CC1)sc(=S)n2-c1ccccc1 ; field requested: inhibition zone (IZ)
78

Query (molecule): Cc1csc(N/N=C/C2=C(Cl)c3ccccc3CC2)n1 ; field requested: inhibition zone (IZ)
72

Query (molecule): COc1ccc(/N=N/c2sc(N/N=C/C3=C(Cl)c4ccccc4CC3)nc2-c2ccccc2)cc1 ; field requested: inhibition zone (IZ)
75

---

Tested on: Priestia megaterium
EXPERIMENT_SUMMARY: Antimicrobial activity against Bacillus megaterium by agar diffusion technique
Assay type: functional
VALUE_KIND: inhibition zone (IZ) (mm)
I only need the number, in mm, no unit after it.

Query (compound): COc1ccc(/N=N/c2sc(N/N=C/C3=C(Cl)c4ccccc4CC3)nc2C)cc1 ; field requested: inhibition zone (IZ)
85

Query (compound): ClC1=C(/C=N/Nc2nc(-c3ccccc3)c(/N=N/c3ccccc3)s2)CCc2ccccc21 ; field requested: inhibition zone (IZ)
79

Query (compound): Nc1sc(=S)n(-c2ccccc2)c1C(=O)N/N=C/C1=C(Cl)c2ccccc2CC1 ; field requested: inhibition zone (IZ)
82
